Kindly state solubility thermodynamic for each of the entries shown.
- experiment.notes: Thermodynamic solubility (pH 7.4)
- Format: physicochemical
- condition.info: pH 7.4, aqueous buffer, thermodynamic from solid

Ask: Form field: reported solubility thermodynamic of CC(=O)c1c(C)c2cnc(Nc3ccc(N4CCC(CCCO)CC4)cc3)nc2n(C2CCCC2)c1=O [PS009]
Result: < 2 µM

Ask: Now this one: CC(=O)c1c(C)c2cnc(Nc3ccc(N4CCNCC4)cn3)nc2n(C2CCCC2)c1=O [Palbociclib, reference compound]
Result: 2.32 µM

Ask: Thanks! And CC(O)CCC1CCN(c2ccc(Nc3ncc4ccc(=O)n([C@@H]5CC6CCC5C6)c4n3)cc2)CC1 (stereo partly shown) [PS004] ?
Result: < 2 µM

Ask: Next compound up: CC(O)COC1CCN(c2ccc(Nc3ncc4ccc(=O)n([C@@H]5CC6CCC5C6)c4n3)cc2)CC1 (stereo partly shown) [PS006]
Result: < 2 µM

---

- System: MCF10 non-transformed mammary epithelial cell line
- experiment.notes: Proliferation assay: determination of GI50
- Assay type: cell-based, human
- condition.info: Homo sapiens, MCF10; Table 3; 48 h; n = 2 independent experiments
- Procedure: The following human tumor cell lines, all Retinoblastoma (Rb)-proficient, were used in this study: MDA-MB231 (breast cancer), MDA-MB453 (breast cancer), U87MG (glioblastoma) and H460 (lung cancer). […] 48 h later cells were fixed with PFA 4% for 15 minutes, stained with 10 μg/ml Hoechst 33342 (Molecular Probes, Thermo Fisher) for 30 minutes and washed twice with PBS. […] Cell counts were determined by the Opera software (Perkin Elmer) and data were further processed with SPSS software. […]
Please respond with reported log10(GI50) for every item in the list.
// do not treat as linear: log10 of GI50, unit nM

Ask: Lookup: log10(GI50) / MCF10 non-transformed mammary epithelial cell line / CC(O)CCN1CCN(c2ccc(Nc3ncc4ccc(=O)n([C@@H]5CC6CCC5C6)c4n3)cc2)CC1 (stereo partly shown)
Result: 1.70

Ask: Then what about the compound CC(O)CCC1CCN(c2ccc(Nc3ncc4ccc(=O)n([C@@H]5CC6CCC5C6)c4n3)cc2)CC1 (stereo partly shown) ?
Result: 3.16

Ask: Now try CC(=O)c1c(C)c2cnc(Nc3ccc(N4CCC(CCCO)CC4)cc3)nc2n([C@@H]2CC3CCC2C3)c1=O (stereo partly shown) .
Result: 2.85

Ask: Now this one: CCN1CCN(Cc2ccc(Nc3ncc(F)c(-c4cc(F)c5nc(C)n(C(C)C)c5c4)n3)nc2)CC1 [Abemaciclib, reference compound]
Result: 3.09

Ask: Continue with O=c1ccc2cnc(Nc3ccc(N4CCC(CCCO)CC4)cc3F)nc2n1[C@@H]1CC2CCC1C2 (stereo partly shown)
Result: 4.54

Ask: Again, but for CC(=O)c1c(C)c2cnc(Nc3ccc(N4CCNCC4)cc3)nc2n([C@@H]2CC3CCC2C3)c1=O (stereo partly shown)
Result: 1.90

Ask: Try this compound next: CC(=O)c1c(C)c2cnc(Nc3ccc(N4CCNCC4)cn3)nc2n(C2CCCC2)c1=O [Palbociclib, reference compound]
Result: 2.67

Ask: Then this compound: O=c1ccc2cnc(Nc3ccc(N4CCC(OCC5(CO)COC5)CC4)cc3)nc2n1[C@@H]1CC2CCC1C2 (stereo partly shown)
Result: 2.11

Ask: Next: O=c1ccc2cnc(Nc3ccc(N4CCC(CCCO)CC4)c(F)c3)nc2n1[C@@H]1CC2CCC1C2 (stereo partly shown)
Result: 3.88

Ask: Would you kindly repeat that for CN(C)C(=O)c1cc2cnc(Nc3ccc(N4CCNCC4)cn3)nc2n1C1CCCC1 [Ribociclib, reference compound] ?
Result: 2.73

Ask: Moving on to the next compound: O=c1ccc2cnc(Nc3ccc(N4CCNCC4)cc3)nc2n1[C@@H]1CC2CCC1C2 (stereo partly shown)
Result: 1.85

Ask: Subsequent entry: CC(=O)c1c(C)c2cnc(Nc3ccc(N4CCC(CCCO)CC4)cc3)nc2n(C2CCCC2)c1=O
Result: 3.07

Ask: Thanks! And CC(O)COC1CCN(c2ccc(Nc3ncc4ccc(=O)n([C@@H]5CC6CCC5C6)c4n3)cc2)CC1 (stereo partly shown) ?
Result: 2.62

---

- system: HIPK2 (Homo sapiens)
- Sequence (Q9H2X6 whole entry): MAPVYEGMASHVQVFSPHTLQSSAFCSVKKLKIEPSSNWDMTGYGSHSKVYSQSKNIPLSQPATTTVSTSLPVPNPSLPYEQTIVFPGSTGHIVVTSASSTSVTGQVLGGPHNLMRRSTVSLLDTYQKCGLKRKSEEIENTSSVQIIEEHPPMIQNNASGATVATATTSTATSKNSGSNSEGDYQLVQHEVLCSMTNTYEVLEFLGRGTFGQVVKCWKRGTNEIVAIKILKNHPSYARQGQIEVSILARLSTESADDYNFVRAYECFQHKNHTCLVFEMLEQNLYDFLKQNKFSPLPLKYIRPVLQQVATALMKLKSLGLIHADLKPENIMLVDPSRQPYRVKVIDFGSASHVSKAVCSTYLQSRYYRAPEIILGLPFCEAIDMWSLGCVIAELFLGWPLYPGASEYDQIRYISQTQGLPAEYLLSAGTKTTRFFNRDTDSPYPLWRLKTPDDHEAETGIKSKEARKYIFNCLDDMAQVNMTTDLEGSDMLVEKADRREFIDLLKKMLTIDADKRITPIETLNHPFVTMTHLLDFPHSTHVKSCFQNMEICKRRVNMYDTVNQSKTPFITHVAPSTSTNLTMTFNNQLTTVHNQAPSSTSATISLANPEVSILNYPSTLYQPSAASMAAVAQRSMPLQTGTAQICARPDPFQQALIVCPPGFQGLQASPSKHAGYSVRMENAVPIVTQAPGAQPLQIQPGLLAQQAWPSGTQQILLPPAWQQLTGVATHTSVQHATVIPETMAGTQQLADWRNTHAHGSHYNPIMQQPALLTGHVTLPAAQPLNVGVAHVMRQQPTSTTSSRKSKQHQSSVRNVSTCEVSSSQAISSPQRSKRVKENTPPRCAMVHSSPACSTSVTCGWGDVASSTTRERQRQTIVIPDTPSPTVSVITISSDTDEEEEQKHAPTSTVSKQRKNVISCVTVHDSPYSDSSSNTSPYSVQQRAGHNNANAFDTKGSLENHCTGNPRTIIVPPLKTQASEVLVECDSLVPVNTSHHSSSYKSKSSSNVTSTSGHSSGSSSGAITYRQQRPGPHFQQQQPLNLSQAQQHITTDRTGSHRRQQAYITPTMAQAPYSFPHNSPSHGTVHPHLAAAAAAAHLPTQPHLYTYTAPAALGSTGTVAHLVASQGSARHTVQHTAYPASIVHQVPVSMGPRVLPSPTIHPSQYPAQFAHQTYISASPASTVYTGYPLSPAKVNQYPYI
- experiment.notes: Kinase profiling
- Assay type: biochemical
property: IC50

Ask: Using the record for CC[C@H](CO)Nc1nc(NCc2ccccc2)c2ncn(C(C)C)c2n1 [Roscovitine, reference compound] , report its IC50.
Result: > 50 µM

---

- system: CDK5/p25NCK (Homo sapiens, UniProt Q00535)
- Sequence (Q00535 whole entry): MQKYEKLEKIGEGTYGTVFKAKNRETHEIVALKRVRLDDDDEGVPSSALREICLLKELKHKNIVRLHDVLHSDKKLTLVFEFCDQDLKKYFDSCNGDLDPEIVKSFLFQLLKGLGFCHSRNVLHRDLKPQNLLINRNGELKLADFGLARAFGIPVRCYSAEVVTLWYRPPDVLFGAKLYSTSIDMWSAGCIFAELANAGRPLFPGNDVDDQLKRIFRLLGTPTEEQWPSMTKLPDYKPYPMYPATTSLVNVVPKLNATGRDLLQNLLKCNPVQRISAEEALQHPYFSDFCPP
- Sequence (Q15078 99-307 partner limits assumed): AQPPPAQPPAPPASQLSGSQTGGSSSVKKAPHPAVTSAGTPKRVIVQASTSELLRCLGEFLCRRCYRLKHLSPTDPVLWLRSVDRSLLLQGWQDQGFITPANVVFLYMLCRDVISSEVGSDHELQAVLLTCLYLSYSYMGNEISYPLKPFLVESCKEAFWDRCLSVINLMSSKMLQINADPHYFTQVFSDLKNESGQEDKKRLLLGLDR
- experiment.notes: Kinase profiling
- Type: biochemical
- condition.info: 10 semi-logarithmic dilutions from 50 μM, singlicate
property: IC50

Ask: Can you look up IC50 on CDK5/p25NCK (Homo sapiens, UniProt Q00535) for CC(=O)c1c(C)c2cnc(Nc3ccc(N4CCC(CCCO)CC4)cc3)nc2n([C@@H]2CC3CCC2C3)c1=O (some centres unmarked) [PS008] ?
Result: 9430 nM

Ask: Moving on to CC(O)CCN1CCN(c2ccc(Nc3ncc4ccc(=O)n([C@@H]5CC6CCC5C6)c4n3)cc2)CC1 (some centres unmarked) [PS005]
Result: 72.5 nM

Ask: Now the compound CC(O)COC1CCN(c2ccc(Nc3ncc4ccc(=O)n([C@@H]5CC6CCC5C6)c4n3)cc2)CC1 (some centres unmarked) [PS006]
Result: 1460 nM

Ask: Same thing, different compound: CC(=O)c1c(C)c2cnc(Nc3ccc(N4CCNCC4)cc3)nc2n([C@@H]2CC3CCC2C3)c1=O (some centres unmarked) [PS010]
Result: 395 nM

Ask: Follow-up entry: O=c1ccc2cnc(Nc3ccc(N4CCNCC4)cc3)nc2n1[C@@H]1CC2CCC1C2 (some centres unmarked) [PS007]
Result: 52.3 nM

Ask: And the next one, CC(O)CCC1CCN(c2ccc(Nc3ncc4ccc(=O)n([C@@H]5CC6CCC5C6)c4n3)cc2)CC1 (some centres unmarked) [PS004] ?
Result: 4410 nM

Ask: Consider next the compound O=c1ccc2cnc(Nc3ccc(N4CCC(CCCO)CC4)cc3F)nc2n1[C@@H]1CC2CCC1C2 (some centres unmarked) [PS002] in the same way.
Result: > 50000 nM

Ask: Now give it for CC(=O)c1c(C)c2cnc(Nc3ccc(N4CCC(CCCO)CC4)cc3)nc2n(C2CCCC2)c1=O [PS009] too.
Result: 4850 nM

Ask: Note, next up: CN(C)C(=O)c1cc2cnc(Nc3ccc(N4CCNCC4)cn3)nc2n1C1CCCC1 [Ribociclib, reference compound]
Result: 2190 nM

Ask: Queued: O=c1ccc2cnc(Nc3ccc(N4CCC(CCCO)CC4)c(F)c3)nc2n1[C@@H]1CC2CCC1C2 (some centres unmarked) [PS003]
Result: 4660 nM

Ask: Also check O=c1ccc2cnc(Nc3ccc(N4CCC(OCC5(CO)COC5)CC4)cc3)nc2n1[C@@H]1CC2CCC1C2 (some centres unmarked) [PS016]
Result: 652 nM

---

- Test system: Caco-2 cells
- experiment.notes: Permeability Caco-2 cells
- Assay type: in vitro ADME
property: Permeability Caco-2 cells: Permeability, grade in words

CC(O)CCC1CCN(c2ccc(Nc3ncc4ccc(=O)n([C@@H]5CC6CCC5C6)c4n3)cc2)CC1 (stereo partly shown)
(low)
CC(=O)c1c(C)c2cnc(Nc3ccc(N4CCC(CCCO)CC4)cc3)nc2n(C2CCCC2)c1=O
(low)
CC(=O)c1c(C)c2cnc(Nc3ccc(N4CCNCC4)cn3)nc2n(C2CCCC2)c1=O [Palbociclib, reference compound]
(low)

---

- experiment.notes: Metabolic stability in microsomes
- Assay type: in vitro ADME
- condition.info: human, 60-90 min test, read-out: Metabolic stability, Human microsomes: Clearance
property: microsomal CLint

Ask: Quick check: microsomal CLint of CC(=O)c1c(C)c2cnc(Nc3ccc(N4CCNCC4)cn3)nc2n(C2CCCC2)c1=O [Palbociclib, reference compound] ?
Result: 23.6 µL/min/mg

Ask: Repeat with CC(O)CCC1CCN(c2ccc(Nc3ncc4ccc(=O)n([C@@H]5CC6CCC5C6)c4n3)cc2)CC1 (stereo partly shown) [PS004]
Result: 40.8 µL/min/mg

Ask: Quick one: CC(=O)c1c(C)c2cnc(Nc3ccc(N4CCC(CCCO)CC4)cc3)nc2n(C2CCCC2)c1=O [PS009]
Result: 33 µL/min/mg

Ask: Same for CC(O)COC1CCN(c2ccc(Nc3ncc4ccc(=O)n([C@@H]5CC6CCC5C6)c4n3)cc2)CC1 (stereo partly shown) [PS006]
Result: 119 µL/min/mg

---

- System: MDA-MB-231 breast carcinoma cell line
- experiment.notes: Proliferation assay: determination of GI50
- Type: cell-based, human
- condition.info: Homo sapiens, MDA-MB-231; Table 3; 48 h; n = 3 independent experiments; read-out: GI50 MDA-MB231
property: GI50 (µM)
Respond numerically; units are µM and should not be typed.

Ask: State the recorded GI50 for this entry: CC(O)CCN1CCN(c2ccc(Nc3ncc4ccc(=O)n([C@@H]5CC6CCC5C6)c4n3)cc2)CC1 (stereo partly drawn)
Result: 0.14

Ask: Next: CCN1CCN(Cc2ccc(Nc3ncc(F)c(-c4cc(F)c5nc(C)n(C(C)C)c5c4)n3)nc2)CC1 [Abemaciclib, reference compound]
Result: 1.5

Ask: Query CC(=O)c1c(C)c2cnc(Nc3ccc(N4CCNCC4)cc3)nc2n([C@@H]2CC3CCC2C3)c1=O (stereo partly drawn) next
Result: 0.5

Ask: One more compound: CC(=O)c1c(C)c2cnc(Nc3ccc(N4CCC(CCCO)CC4)cc3)nc2n([C@@H]2CC3CCC2C3)c1=O (stereo partly drawn)
Result: 4.5

Ask: What do we get for CC(=O)c1c(C)c2cnc(Nc3ccc(N4CCNCC4)cn3)nc2n(C2CCCC2)c1=O [Palbociclib, reference compound] ?
Result: 0.74

Ask: What do you get for O=c1ccc2cnc(Nc3ccc(N4CCC(CCCO)CC4)cc3F)nc2n1[C@@H]1CC2CCC1C2 (stereo partly drawn) ?
Result: 35.2

Ask: Follow-up entry: O=c1ccc2cnc(Nc3ccc(N4CCC(CCCO)CC4)c(F)c3)nc2n1[C@@H]1CC2CCC1C2 (stereo partly drawn)
Result: 3.9

Ask: Moving on to the next compound: CN(C)C(=O)c1cc2cnc(Nc3ccc(N4CCNCC4)cn3)nc2n1C1CCCC1 [Ribociclib, reference compound]
Result: 0.7

Ask: Moving on to the next compound: O=c1ccc2cnc(Nc3ccc(N4CCC(OCC5(CO)COC5)CC4)cc3)nc2n1[C@@H]1CC2CCC1C2 (stereo partly drawn)
Result: 1.23
